Data origin, for the record: PubChem BioAssay AID328

# Test system: BDF1 mice, P388 leukemia ip, median survival T/C
# testDescription: NCI In Vivo Anticancer Drug Screen. Data for tumor model P388 Leukemia (intraperitoneal) in B6D2F1 (BDF1) mice
# studyConditions: endpoint: median survival time; dose: 200.0 mg/kg/injection; schedule: Q01DX009 (ip); vehicle: Klucel (hydroxypropylcellulose) (HPC); higher = longer survival
Inconclusive results and toxic doses are left out.
readout: T/C

# query: T/C of entry COc1c(C)cc(Br)c2c1C(CCN(C)S(=O)(=O)Cc1ccccc1)CCC2 (stereo unspecified)
110 % of control

# query: T/C of entry O=CNc1c(Cl)c(Cl)c2c(c1Cl)Cc1cc(Cl)ccc1-2
116 % of control

# query: T/C of entry Fc1ccc(CSc2ncnc3c2ncn3C2CCCCO2)cc1 (stereo unspecified)
100 % of control

# query: T/C of entry CCCCCCC(=O)CCCC(C)CCCC(C)C (stereo unspecified)
109 % of control

# query: T/C of entry Oc1ccc2ccccc2c1N=Nc1ccccc1
104 % of control

# query: T/C of entry CCOC(=O)CNC(c1ccccc1)(c1ccccc1)c1ccccc1
91 % of control

* * *

# System: BDF1 mice, P388 leukemia ip, median survival T/C
# testDescription: NCI In Vivo Anticancer Drug Screen. Data for tumor model P388 Leukemia (intraperitoneal) in B6D2F1 (BDF1) mice
# studyConditions: endpoint: median survival time; dose: 3.13 mg/kg/injection; schedule: Q01DX009 (ip); vehicle: saline with Tween-80
Toxic doses and inconclusive results are not listed. How the source made its calls: active means survival T/C of 150% or more; inactive means T/C below 125% in these data.
Choose the fitting class; nothing outside 1.0 (active), 0.0 (inactive) is accepted.

For this molecule, state the assay outcome: CC/C(C)=C1\OC(=O)C(C)C(O)C(Cc2cccnc2)NC(=O)C(NC(=O)c2ncccc2O)C(C)OC1=O (stereo not given)
0.0

For this molecule, state the assay outcome: O=C(COc1cc(Cl)c(Cl)cc1Cl)OCCOc1cc(Cl)c(Cl)cc1Cl
0.0

For this molecule, state the assay outcome: Nc1ccc(/C=C\c2nccc3ccccc23)cc1
0.0

For this molecule, state the assay outcome: CNc1ncnc2nc(OC)[nH]c12
0.0

For this molecule, state the assay outcome: COc1cc(NS(C)(=O)=O)ccc1Nc1c2cccc(C)c2nc2c(C)cccc12
1.0

* * *

Can you tell me T/C for the items I'm about to list?
# Test system: BDF1 mice, P388 leukemia ip, median survival T/C
# testDescription: NCI In Vivo Anticancer Drug Screen. Data for tumor model P388 Leukemia (intraperitoneal) in B6D2F1 (BDF1) mice
# studyConditions: endpoint: median survival time; dose: 200.0 mg/kg/injection; schedule: Q04DX003 (ip); vehicle: saline sonified; higher = longer survival
Toxic doses and inconclusive results are not listed.

# query: T/C of entry Nc1nc(SCc2ccc([N+](=O)[O-])cc2)c2[nH]cnc2n1
110 % of control

# query: T/C of entry CC1(C)CC(=O)C=C(NC2CCCCC2)C1
100 % of control

# query: T/C of entry Cc1nc(C(N)=O)c(=O)[nH]c1C
104 % of control

# query: T/C of entry c1ccc2nc(-c3cc4ccccc4s3)ccc2c1
95 % of control

# query: T/C of entry O=c1[nH]cnc2sc3c(c12)CCCC3
100 % of control

# query: T/C of entry CCCC(Sc1nc(N)nc2nc[nH]c12)C(=O)O (configuration not stated)
118 % of control

# query: T/C of entry ClC(CN1CCCCC1)C(Cl)c1ccccc1 (configuration not stated)
104 % of control

* * *

# System: BDF1 mice, P388 leukemia ip, median survival T/C
# testDescription: NCI In Vivo Anticancer Drug Screen. Data for tumor model P388 Leukemia (intraperitoneal) in B6D2F1 (BDF1) mice
# studyConditions: endpoint: median survival time; dose: 25.0 mg/kg/injection; schedule: Q04DX003 (ip); vehicle: saline with Tween-80; higher = longer survival
Toxic doses and inconclusive results are not listed.
readout: T/C

# query: T/C of entry COC(=O)c1ccc(Cl)c(Cl)c1
102 % of control

# query: T/C of entry CCCCCCCCCCCCCCCC[N+](C)(C)c1ccccc1
108 % of control

# query: T/C of entry CCCCN(C(C)(C)C(SSSC(c1ccc(Cl)cc1)C(C)(C)N(CCCC)S(C)(=O)=O)c1ccc(Cl)cc1)S(C)(=O)=O (configuration not stated)
100 % of control

# query: T/C of entry CCNC(C)(C)C(O)c1ccc(Cl)s1 (configuration not stated)
102 % of control

# query: T/C of entry C[N+](C)(C)Cc1ccccc1
95 % of control

# query: T/C of entry O=C(CC(c1ccccc1)c1c(O)c2ccccc2oc1=O)c1ccccc1 (configuration not stated)
109 % of control

# query: T/C of entry C=CC(CO)N1CC1 (configuration not stated)
104 % of control

* * *

# Tested on: BDF1 mice, P388 leukemia ip, median survival T/C
# testDescription: NCI In Vivo Anticancer Drug Screen. Data for tumor model P388 Leukemia (intraperitoneal) in B6D2F1 (BDF1) mice
# studyConditions: endpoint: median survival time; dose: 100.0 mg/kg/injection; schedule: Q01DX009 (ip); vehicle: Klucel (hydroxypropylcellulose) (HPC)
Inconclusive results and toxic doses are left out. The calls were made as follows: active = survival T/C of 150% or more; inactive = T/C below 125% in these data.
Choose the fitting class; nothing outside active, inactive is accepted.

For this molecule, state the assay outcome: CC1C(=O)OC(C)(C)OC1=O
inactive

For this molecule, state the assay outcome: C[C@@H]1CC2=CC(=O)C=C[C@]2(C)[C@H]2CC[C@@]3(C)[C@@H](CC[C@]3(C)O)[C@H]12
inactive

For this molecule, state the assay outcome: O=C(OCC#CC#CCOC(=O)c1cccc2ccccc12)c1cccc2ccccc12
inactive

For this molecule, state the assay outcome: NCCSC(c1ccccc1)c1ccccc1
inactive

For this molecule, state the assay outcome: Clc1cccc(Cl)c1Br
inactive

For this molecule, state the assay outcome: Cc1ccc(NC(=S)N2CCC(CCCC3CCN(C(=S)Nc4ccc(C)c(C)c4)CC3)CC2)cc1C
inactive

For this molecule, state the assay outcome: CCOC(=O)c1cnn(-c2ccccc2)c1C
inactive

For this molecule, state the assay outcome: C1=CC=CN(c2ccccc2)C=C1
inactive

For this molecule, state the assay outcome: n1nc(Nc2nn[nH]n2)n[nH]1
inactive

For this molecule, state the assay outcome: CC1NC(C(=O)O)Cc2cc(O)c(O)cc21 (centres undefined)
inactive

For this molecule, state the assay outcome: O=C(Nc1ccc([N+](=O)[O-])cc1)OCC#CC#CCOC(=O)Nc1ccc([N+](=O)[O-])cc1
inactive

For this molecule, state the assay outcome: O=C(CCCCC(=O)Nc1ccc(C2=NCCN2)cc1)Nc1ccc(C2=NCCN2)cc1
active

For this molecule, state the assay outcome: O=C(NN(c1ccc([N+](=O)[O-])cc1)c1ccc([N+](=O)[O-])cc1)c1ccccc1
inactive

For this molecule, state the assay outcome: CC(=O)OC1CCC(C)(C2CCC3(C)C(C(C)CCCC(C)C)CCC3C2CC(=O)O)C(=O)C1 (centres undefined)
inactive

For this molecule, state the assay outcome: Nc1ncnc2c1ncn2C1(CO)OC(CO)C(O)C1O (centres undefined)
inactive

For this molecule, state the assay outcome: CCOC(=O)C(C#N)C(C)CC (centres undefined)
inactive

For this molecule, state the assay outcome: Oc1ccc2ccccc2c1N=Nc1ccccc1
inactive

For this molecule, state the assay outcome: CCOC(=O)C1(C(=O)O)CC2C(C)C=CC(C)C2C1 (centres undefined)
inactive

For this molecule, state the assay outcome: CC(=O)OCC(=O)[C@@]1(O)CC[C@H]2[C@@H]3CCC4=CC(=O)[C@H](C)C[C@]4(C)[C@H]3[C@@H](O)C[C@@]21C
inactive

For this molecule, state the assay outcome: CCOC(=O)CNC(c1ccccc1)(c1ccccc1)c1ccccc1
inactive

For this molecule, state the assay outcome: COc1ccc(/C=C(\CC(=O)O)C(=O)O)cc1OC
inactive

For this molecule, state the assay outcome: CN1CCN(CCNc2ccc(CO)c3sc4ccccc4c(=O)c23)CC1
active

For this molecule, state the assay outcome: O=C(/C=C/c1c(Cl)cccc1Cl)c1ccccc1
inactive

For this molecule, state the assay outcome: CCCCCCCCCCNc1ccc(NCCCCCCCCCC)cc1
inactive

* * *

Can you tell me T/C for the items I'm about to list?
# Tested on: BDF1 mice, P388 leukemia ip, median survival T/C
# testDescription: NCI In Vivo Anticancer Drug Screen. Data for tumor model P388 Leukemia (intraperitoneal) in B6D2F1 (BDF1) mice
# studyConditions: endpoint: median survival time; dose: 400.0 mg/kg/injection; schedule: Q04DX003 (ip); vehicle: Klucel (hydroxypropylcellulose) (HPC); higher = longer survival
Toxic doses and inconclusive results are not listed.

# query: T/C of entry COc1cccc(C(=O)O)c1OS(=O)(=O)c1ccccc1
105 % of control

# query: T/C of entry CC1(C)C2CC3C(=CCCC3C#N)C1C2 (stereo not drawn)
100 % of control

# query: T/C of entry Clc1ccccc1CSc1ncnc2nc[nH]c12
100 % of control

# query: T/C of entry CC(=O)CC(=O)c1ccccc1
112 % of control

# query: T/C of entry CCCCCCCCC(O)CCCC (stereo not drawn)
100 % of control

# query: T/C of entry CCOC(=O)CCCl
100 % of control

# query: T/C of entry O=C(c1ccccc1)N(Nc1ccccc1)c1ccccc1
100 % of control

# query: T/C of entry Cc1cc2c(cc1C)NC(=O)CC(=O)N2
86 % of control

# query: T/C of entry O=C1c2ccccc2CCC1(Br)C(Br)c1ccccc1 (stereo not drawn)
121 % of control

# query: T/C of entry OCC1C(CO)C2(Cl)C(Cl)=C(Cl)C1(Cl)C2(Cl)Cl (stereo not drawn)
109 % of control

# query: T/C of entry CCCCCCCC(=O)NCCCC
100 % of control

# query: T/C of entry c1ccc2c(c1)NC1(CCCCC1)S2
105 % of control

# query: T/C of entry CN(C)c1ccc(C=O)c(Oc2ccccc2)c1
100 % of control

# query: T/C of entry COc1cc(C(=O)CCC(=O)O)cc(OC)c1OC
115 % of control

# query: T/C of entry Clc1ccc(N=Cc2ccc(C=Nc3ccc(Cl)c(Cl)c3)cc2)cc1Cl
100 % of control

# query: T/C of entry Fc1c(Cl)c(Cl)c(Cl)c(Cl)c1Cl
100 % of control

# query: T/C of entry C[C@@H]1CC2=CC(=O)C=C[C@]2(C)[C@H]2CC[C@@]3(C)[C@@H](CC[C@]3(C)O)[C@H]12
91 % of control

# query: T/C of entry Oc1ccc2ccccc2c1N=Nc1ccccc1
104 % of control

# query: T/C of entry CCOC(=O)/C(C#N)=C/c1ccc(O)c(OC)c1
100 % of control

# query: T/C of entry O=C1OC(c2ccc([N+](=O)[O-])cc2)Sc2ccccc21 (stereo not drawn)
109 % of control

# query: T/C of entry Cc1ccc(NC(=S)N2CCC(CCCC3CCN(C(=S)Nc4ccc(C)c(C)c4)CC3)CC2)cc1C
100 % of control

# query: T/C of entry CC12CCC3c4ccccc4CCC3(CO1)C2 (stereo not drawn)
100 % of control

# query: T/C of entry CCOC(=O)C(=O)Cc1cnc2ccccc2n1
90 % of control

# query: T/C of entry O=C(N=C1C=CC(=NC(=O)OCc2ccccc2)C=C1)OCc1ccccc1
100 % of control

# query: T/C of entry Clc1cccc(Cl)c1Br
115 % of control

# query: T/C of entry O=C1c2c(O)ccc([N+](=O)[O-])c2C(=O)c2c([N+](=O)[O-])ccc(O)c21
113 % of control

# query: T/C of entry O=c1cc(-c2ccccc2)nc2c(Cl)cc(Cl)cn12
96 % of control

# query: T/C of entry OCCCNc1cccc2ccccc12
100 % of control
